Target: CDK12 (nuclear staining in CAL-120 cells) (Homo sapiens)
Construct: endogenous in cells; host or cells: CAL-120 human breast cancer cells (DSMZ ACC 459)
Sequence (Q9NYV4 whole entry): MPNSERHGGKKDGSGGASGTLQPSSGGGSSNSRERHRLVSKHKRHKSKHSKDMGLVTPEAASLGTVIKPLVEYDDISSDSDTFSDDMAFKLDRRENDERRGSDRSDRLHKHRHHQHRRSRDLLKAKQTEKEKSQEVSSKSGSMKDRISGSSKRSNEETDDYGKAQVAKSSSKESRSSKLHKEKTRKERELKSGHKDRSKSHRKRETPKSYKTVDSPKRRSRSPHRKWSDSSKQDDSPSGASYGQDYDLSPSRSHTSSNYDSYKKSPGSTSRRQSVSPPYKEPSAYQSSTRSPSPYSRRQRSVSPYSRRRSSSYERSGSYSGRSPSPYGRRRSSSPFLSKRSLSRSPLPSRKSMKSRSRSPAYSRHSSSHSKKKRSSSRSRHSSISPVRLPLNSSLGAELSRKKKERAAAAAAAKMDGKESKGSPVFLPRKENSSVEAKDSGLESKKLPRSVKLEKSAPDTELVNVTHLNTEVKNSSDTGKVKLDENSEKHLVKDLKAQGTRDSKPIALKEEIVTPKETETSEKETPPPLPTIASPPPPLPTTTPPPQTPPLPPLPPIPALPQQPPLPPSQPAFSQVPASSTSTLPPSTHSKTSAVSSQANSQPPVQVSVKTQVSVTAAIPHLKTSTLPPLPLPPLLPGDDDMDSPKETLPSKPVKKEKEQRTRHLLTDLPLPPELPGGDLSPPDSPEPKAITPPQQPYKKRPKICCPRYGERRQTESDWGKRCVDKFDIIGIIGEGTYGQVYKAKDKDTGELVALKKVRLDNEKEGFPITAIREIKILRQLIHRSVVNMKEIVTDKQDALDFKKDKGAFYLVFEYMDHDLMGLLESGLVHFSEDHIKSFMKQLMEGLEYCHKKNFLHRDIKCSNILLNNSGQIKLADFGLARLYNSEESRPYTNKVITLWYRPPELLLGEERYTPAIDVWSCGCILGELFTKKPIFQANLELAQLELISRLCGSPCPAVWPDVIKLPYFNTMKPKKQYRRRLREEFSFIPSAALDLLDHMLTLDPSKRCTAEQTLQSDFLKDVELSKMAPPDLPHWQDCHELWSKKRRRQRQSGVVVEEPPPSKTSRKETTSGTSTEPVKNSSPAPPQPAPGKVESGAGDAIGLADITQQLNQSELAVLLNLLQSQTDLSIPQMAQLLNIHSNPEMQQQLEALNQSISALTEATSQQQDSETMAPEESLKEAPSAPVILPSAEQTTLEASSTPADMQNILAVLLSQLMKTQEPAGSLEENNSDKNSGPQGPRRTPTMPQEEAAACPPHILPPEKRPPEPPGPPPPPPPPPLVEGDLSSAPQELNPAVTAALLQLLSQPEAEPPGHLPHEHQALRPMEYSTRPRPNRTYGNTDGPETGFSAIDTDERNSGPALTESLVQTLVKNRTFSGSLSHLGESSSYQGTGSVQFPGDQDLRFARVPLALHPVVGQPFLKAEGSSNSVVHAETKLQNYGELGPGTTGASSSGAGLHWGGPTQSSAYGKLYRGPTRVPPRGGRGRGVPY
Sequence (O75909 whole entry partner): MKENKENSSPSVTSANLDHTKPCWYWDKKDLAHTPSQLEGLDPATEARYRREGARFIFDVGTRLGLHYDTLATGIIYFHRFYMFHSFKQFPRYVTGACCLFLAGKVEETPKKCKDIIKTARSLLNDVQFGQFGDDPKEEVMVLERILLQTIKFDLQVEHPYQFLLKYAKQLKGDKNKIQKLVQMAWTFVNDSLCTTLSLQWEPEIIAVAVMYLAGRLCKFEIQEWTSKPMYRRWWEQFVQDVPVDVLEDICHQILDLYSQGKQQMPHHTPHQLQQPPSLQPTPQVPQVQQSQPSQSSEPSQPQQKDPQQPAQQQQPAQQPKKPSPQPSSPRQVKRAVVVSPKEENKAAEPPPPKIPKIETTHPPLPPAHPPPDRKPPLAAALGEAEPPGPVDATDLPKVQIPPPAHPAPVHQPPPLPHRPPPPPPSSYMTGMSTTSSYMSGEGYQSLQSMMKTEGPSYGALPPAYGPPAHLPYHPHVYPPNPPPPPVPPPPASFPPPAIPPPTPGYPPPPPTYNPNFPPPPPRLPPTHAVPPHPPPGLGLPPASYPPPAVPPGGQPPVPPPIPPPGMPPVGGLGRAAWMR
Assay: CDK12 nuclear protein level: immunofluorescence/high content analysis (CAL-120)
Assay type: cell-based
Details: CAL-120 cells, 24 h, immunofluorescence; 50% reduction of nuclear CDK12 staining intensity; median; read-out: CDK12 degradation IF, DC50- [mol/l] (median)
Doc: threshold 20 nM (exclusive). Items with DC50 beneath it return Criterion met; others return Criterion not met.

The following molecules have reported results that may help.
Fc1ccc2[nH]c(CNc3nc(N4CCNCC4)nc4c(C5CC5)cnn34)nc2c1F; Criterion met
CC(C)c1cnn2c(NCc3nc4ccccc4[nH]3)nc(N3CCOC(C)(C)C3)nc12; Criterion not met
c1ccc2[nH]c(CNc3nc(N4C[C@@H]5CCCN[C@@H]5C4)nc4c(C5CC5)cnn34)nc2c1; Criterion met
Brc1cnn2c(NCc3nc4ccccc4[nH]3)nc(N3CCN4CCC[C@H]4C3)nc12; Criterion met

As a next step, examine the molecule that follows.
Exercise: Identify whether the molecule Fc1ccc2[nH]c(CNc3nc(N4CCOCC4)nc4c(CC(F)F)cnn34)nc2c1F.O=C(O)C(F)(F)F records DC50 below 20 nM.
Solution: Criterion met

====

Molecular target: CYCLIN K (nuclear staining in CAL-120 cells) (Homo sapiens, UniProt O75909)
Construct: endogenous in cells; host or cells: CAL-120 human breast cancer cells (DSMZ ACC 459)
Sequence (O75909 whole entry): as the sequence (O75909 whole entry partner) above
Sequence (Q9NYV4 whole entry partner): as the sequence (Q9NYV4 whole entry) above
Assay: CYCLIN K nuclear protein level: immunofluorescence high content analysis (CAL-120)
Assay type: cell-based
Settings: 24 h, 50% reduction of nuclear CCNK staining intensity, median, read-out: CYCLIN K degradation IF, DC50-[mol/l] (median)
Method: 8. CYCLIN K nuclear protein level: immunofluorescence High Content Analysis CAL-120 human breast cancer cells (DSMZ ACC 459) are seeded in 1536-well microtiter plates (800 cells per well) containing 50 nanoL of compounds in Dose-Response. Control wells received DMSO or Example 4. […] Nuclear and cytoplasmic intensity as well as the nuclear/cytoplasmic intensity ratio is determined by automated image analysis using custom generated scripts (MetaXpress). […]
Doc: threshold 1 nM (exclusive). Items with DC50 beneath it return True; others return False.

The following compounds have reported results that may help.
N#Cc1cnn2c(NCc3nc4ccccc4[nH]3)nc(N3CCOCC3)nc12 [Example 43]; False
C[C@H]1CN(c2nc(NCc3nc4ccccc4[nH]3)n3ncc(Br)c3n2)CCN1 [Example 169]; False
Fc1ccc2[nH]c(CNc3nc(N4CCOCC4)nc4c(C5CC5(F)F)cnn34)nc2c1 (single isomer, unassigned) [Example 314]; False
CC(C)c1cnn2c(NCc3nc4ccccc4[nH]3)nc(N3CCOCC3)nc12 [Example 1]; False
Cc1ccccc1-c1cnc(CNc2nc(N3CCOCC3)nc3c(Br)cnn23)[nH]1 [Example 85]; False
OC[C@@H]1CCCCN1c1nc(NCc2nc3ccccc3[nH]2)n2ncc(Br)c2n1 [Example 59]; False
COc1ccccc1-c1cnc(CNc2nc(N3CCOCC3)nc3c(Br)cnn23)[nH]1 [Example 87]; True
CN1CCN(c2nc(NCc3nc4cc(F)ccc4[nH]3)n3ncc(C4CC4)c3n2)CC1 [Example 164]; False

Exercise: Identify whether the compound Cc1cccc2[nH]c(CNc3nc(N4CCOCC4)nc4c(Br)cnn34)nc12 [Example 150] records DC50 below 1 nM.
Solution: False

Exercise: Identify whether the compound Clc1ccccc1-c1cnc(CNc2nc(N3CCOCC3)nc3c(Br)cnn23)[nH]1 [Example 96] records DC50 below 1 nM.
Solution: False

Exercise: Identify whether the compound Brc1cnn2c(NCc3nc4ccccc4[nH]3)nc(N3C[C@H]4C[C@@H]3CN4)nc12 [Example 269] records DC50 below 1 nM.
Solution: True

Exercise: Identify whether the compound N[C@H]1CCN(c2nc(NCc3nc4ccccc4[nH]3)n3ncc(Br)c3n2)C1 [Example 245] records DC50 below 1 nM.
Solution: True

Exercise: Identify whether the compound CC(C)c1cnn2c(NCc3nc4ccccc4[nH]3)nc(N(C)CC(C)(C)O)nc12 [Example 5] records DC50 below 1 nM.
Solution: False

All figures here come from patent US20230117034A1.
